Each entry below carries its recorded melting point.

# molecule, melting point
measured = [
    ("CC(=O)c1cc(C(F)(F)F)cc(S(N)(=O)=O)c1", "157 to 159 °C"),
    ("O=C1CSCc2cc(-c3ccccc3)ccc21", "87 to 89 °C"),
    ("COc1ccc2c(c1)CCC(C(=O)Cl)C2 (stereo unspecified)", "162 to 164 °C"),
    ("COc1ccc(-c2cc(C(=O)O)n(C)n2)cc1", "190 to 193 °C"),
    ("[N-]=[N+]=Nc1cc(=O)oc2ccccc12", "159 to 160 °C"),
]

Field: next molecule
Report melting point for O=C(CC(=O)C1CC1)c1cccnc1 please.
69 to 70 °C
